Target: recombinant human MASP2 active protease (amino acids 297-686, C-terminal His Tag) (human, UniProt O00187 297-686)
Sequence (O00187 other isoform, or with tags, fused parts or gaps limits assumed): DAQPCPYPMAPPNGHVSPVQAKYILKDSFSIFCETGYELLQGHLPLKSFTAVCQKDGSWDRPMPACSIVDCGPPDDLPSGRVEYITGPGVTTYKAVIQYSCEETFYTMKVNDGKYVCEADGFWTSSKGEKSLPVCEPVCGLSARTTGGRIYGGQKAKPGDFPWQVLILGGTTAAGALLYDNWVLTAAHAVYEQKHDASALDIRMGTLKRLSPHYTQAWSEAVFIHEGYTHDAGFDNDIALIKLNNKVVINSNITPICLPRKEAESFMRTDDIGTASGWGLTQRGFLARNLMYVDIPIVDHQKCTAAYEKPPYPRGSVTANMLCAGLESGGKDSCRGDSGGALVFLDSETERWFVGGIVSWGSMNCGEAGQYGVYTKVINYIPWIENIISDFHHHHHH
Assay: cell-based or functional assay
Bridge positions count the residues as written; N and C are the ends. Square brackets hold non-standard residues; d marks the D form. Primed or numbered codes have the meaning given here. Ends that are not written are not given here. Oic = O=C(O)[C@@H]1C[C@@H]2CCCC[C@@H]2N1; Pro‑D2″ = L-Proline (3,4-2H), deuterated; tBuAla = CC(C)(C)C[C@H](N)C(=O)O; Pen = CC(C)(S)[C@H](N)C(=O)O; NMeC = CN[C@@H](CS)C(=O)O; Orn = NCCC[C@H](N)C(=O)O
Kindly state human MASP2 IC50 for each of the entries shown.
Answers are plain numbers, in nM.

# binder, assay.endpoint, measured.result
data = [
    ("AICSRS[tBuAla]P[Oic]I[Pen]IPD-NH2 (disulfide 3-11; N-terminus assumed; SMILES CC[C@H](C)[C@H](NC(=O)[C@H](C)N)C(=O)N[C@H]1CSSC(C)(C)[C@@H](C(=O)N[C@H](C(=O)N2CCC[C@H]2C(=O)N[C@@H](CC(=O)O)C(N)=O)[C@@H](C)CC)NC(=O)[C@H]([C@@H](C)CC)NC(=O)[C@@H]2C[C@@H]3CCCC[C@@H]3N2C(=O)[C@@H]2CCCN2C(=O)[C@H](CC(C)(C)C)NC(=O)[C@H](CO)NC(=O)[C@H](CCCNC(=N)N)NC(=O)[C@H](CO)NC1=O) [AIC+SRS-((tBu)A)-P-(Oic)-I-(Pen)+IPD-NH2]", "human MASP2 IC50", 130),
    ("[Orn]ICSRS[tBuAla]PPI[Pen]IP-OH (disulfide 3-11; N-terminus assumed; SMILES CC[C@H](C)[C@H](NC(=O)[C@@H](N)CCCN)C(=O)N[C@H]1CSSC(C)(C)[C@@H](C(=O)N[C@H](C(=O)N2CCC[C@H]2C(=O)O)[C@@H](C)CC)NC(=O)[C@H]([C@@H](C)CC)NC(=O)[C@@H]2CCCN2C(=O)[C@@H]2CCCN2C(=O)[C@H](CC(C)(C)C)NC(=O)[C@H](CO)NC(=O)[C@H](CCCNC(=N)N)NC(=O)[C@H](CO)NC1=O) [(Orn)-IC+SRS-((tBu)A)-PPI-(Pen)+IP-OH]", "human MASP2 IC50", 130),
    ("AICSRSL[Pro‑D2″][Oic]I[Pen]IPD-OH (disulfide 3-11) [AIC+SRSL-(Pro-D2)-(Oic)-I-(Pen)+IPD-OH]", "human MASP2 IC50", 126),
    ("RICSRS[tBuAla]PPI[NMeC]IPD-NH2 (disulfide 3-11; N-terminus assumed; SMILES CC[C@H](C)[C@H](NC(=O)[C@@H](N)CCCNC(=N)N)C(=O)N[C@H]1CSSC[C@@H](C(=O)N[C@H](C(=O)N2CCC[C@H]2C(=O)N[C@@H](CC(=O)O)C(N)=O)[C@@H](C)CC)N(C)C(=O)[C@H]([C@@H](C)CC)NC(=O)[C@@H]2CCCN2C(=O)[C@@H]2CCCN2C(=O)[C@H](CC(C)(C)C)NC(=O)[C@H](CO)NC(=O)[C@H](CCCNC(=N)N)NC(=O)[C@H](CO)NC1=O) [RIC+SRS-((tBu)A)-PPI-((N-Me)C)+IPD-NH2]", "human MASP2 IC50", 100),
]

Let us move to another entry and its human MASP2 IC50.
Record request: human MASP2 IC50 value, item [Orn]ICSRSLP[Oic]I[Pen]IPD-NH2 (disulfide 3-11; N-terminus assumed; SMILES CC[C@H](C)[C@H](NC(=O)[C@@H](N)CCCN)C(=O)N[C@H]1CSSC(C)(C)[C@@H](C(=O)N[C@H](C(=O)N2CCC[C@H]2C(=O)N[C@@H](CC(=O)O)C(N)=O)[C@@H](C)CC)NC(=O)[C@H]([C@@H](C)CC)NC(=O)[C@@H]2C[C@@H]3CCCC[C@@H]3N2C(=O)[C@@H]2CCCN2C(=O)[C@H](CC(C)C)NC(=O)[C@H](CO)NC(=O)[C@H](CCCNC(=N)N)NC(=O)[C@H](CO)NC1=O) [(Orn)-IC+SRSLP-(Oic)-I-(Pen)+IPD-NH2]
76
